system: T1, murine IL-21R extracellular domain His-Flag fusion protein (murine, UniProt Q9JHX3 20-237)
T1 construct: Biotinylated in the ELISAs; also called mIL-21R-H/F; murine IL-21R-H/F
experiment description: SPR, Ab captured on anti-human IgG
outcome measure: koff
Remember to put the unit after the number in your answer.

[[record]]
binder = "AbT (antibody, human IgG1, V domains shown, CDR3 graft, residue limits derived as for m29; also called VHP/VL9; VHPTM/VL9) VH: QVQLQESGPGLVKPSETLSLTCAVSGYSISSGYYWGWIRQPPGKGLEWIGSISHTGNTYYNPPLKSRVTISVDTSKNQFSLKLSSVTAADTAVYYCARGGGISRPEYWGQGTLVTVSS VL: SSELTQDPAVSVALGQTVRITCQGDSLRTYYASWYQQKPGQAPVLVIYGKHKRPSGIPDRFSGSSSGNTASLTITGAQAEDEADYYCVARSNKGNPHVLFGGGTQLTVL"
data_value = "0.00331 s⁻¹"


Here's the next entry for you.
Kindly note the recorded koff for parental 18A5 antibody (antibody, V domains shown, also called 18A5 IgG) VH: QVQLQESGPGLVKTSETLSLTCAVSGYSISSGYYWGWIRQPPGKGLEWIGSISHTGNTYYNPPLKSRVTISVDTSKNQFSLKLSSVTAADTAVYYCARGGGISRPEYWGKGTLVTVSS VL: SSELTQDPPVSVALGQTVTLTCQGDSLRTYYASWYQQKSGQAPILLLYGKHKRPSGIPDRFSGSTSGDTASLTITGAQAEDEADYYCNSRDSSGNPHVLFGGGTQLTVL , which is 0.0153 s⁻¹
